# assayed_system: T1, USP38, Q8NB14
# T1 chain: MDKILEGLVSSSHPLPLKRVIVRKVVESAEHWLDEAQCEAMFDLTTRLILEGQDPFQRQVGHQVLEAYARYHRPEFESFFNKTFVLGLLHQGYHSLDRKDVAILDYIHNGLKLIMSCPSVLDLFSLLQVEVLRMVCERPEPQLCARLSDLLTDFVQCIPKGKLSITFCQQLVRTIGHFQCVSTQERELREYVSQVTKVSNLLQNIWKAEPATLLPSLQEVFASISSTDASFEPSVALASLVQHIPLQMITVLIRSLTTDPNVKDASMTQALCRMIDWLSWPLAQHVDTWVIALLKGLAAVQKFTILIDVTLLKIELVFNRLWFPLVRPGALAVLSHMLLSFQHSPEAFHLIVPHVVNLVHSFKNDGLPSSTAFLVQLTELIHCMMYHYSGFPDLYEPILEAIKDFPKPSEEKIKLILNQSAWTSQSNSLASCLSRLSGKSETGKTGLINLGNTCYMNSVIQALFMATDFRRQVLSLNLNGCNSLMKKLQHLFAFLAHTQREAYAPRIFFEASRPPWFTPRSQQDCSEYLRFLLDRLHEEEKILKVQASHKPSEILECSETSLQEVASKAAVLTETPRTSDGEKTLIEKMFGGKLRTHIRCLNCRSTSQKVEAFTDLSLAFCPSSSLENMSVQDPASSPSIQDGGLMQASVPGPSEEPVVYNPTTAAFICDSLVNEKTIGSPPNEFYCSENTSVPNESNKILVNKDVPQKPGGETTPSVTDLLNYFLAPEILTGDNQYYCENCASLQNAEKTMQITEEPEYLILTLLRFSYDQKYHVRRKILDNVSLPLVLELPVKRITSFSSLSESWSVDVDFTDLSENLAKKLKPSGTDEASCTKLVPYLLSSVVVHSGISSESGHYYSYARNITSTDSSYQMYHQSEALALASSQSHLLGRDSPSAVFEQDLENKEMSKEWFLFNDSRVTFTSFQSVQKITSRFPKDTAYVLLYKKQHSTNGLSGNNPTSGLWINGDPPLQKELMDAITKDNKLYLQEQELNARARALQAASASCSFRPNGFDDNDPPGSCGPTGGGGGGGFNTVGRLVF
# test_details: median log2 fold change of GCK-ALFA target abundance (FLAG IP / Myc IP barcode read proportion) (log2 ratio); each designed protein is fused to an ALFA-tag nanobody in HEK293 cells to bring the named protein to FLAG-tagged glucokinase (GCK); Myc marks an untargeted standard; higher = target protein stabilised (more abundant)
# recorded_conditions: target protein: 3xFLAG-MCP-GCK-ALFA reporter; HEK293 landing pad (RPLP)
property_name: median log2 fold change
Give bare numbers.

Solved cases (5 shown):
[
  {
    "binder": "usp_38_diff_out_18_14_290 (protein) SEELSKAEISALELLKKEVKENTERTIKLLEKVKDDPELVKRVMERAERNLAGVRAYAEDVKERAKERGDEETVKAAEELLKEIEEARKKLKEEYKKVMA",
    "median log2 fold change": 0.00299
  },
  {
    "binder": "usp_38_diff_out_1_153_21 (protein) SELEELKKELEEILEEAKKLKEEIEKLIKEGKMTLEKVDKLADELGRLSKRFREIRSKAAENPEYYEKLKELFKETEEELNKAVDALNEAGRLVFLKEAE",
    "median log2 fold change": 0.358
  },
  {
    "binder": "usp_38_diff_out_3_65_536 (protein) EVEKLLEEAKKYLEEARKIVEELRREVEEDPTITIDEVNEKLDEAADKIVAAGQKIREAKKLNPDEEQKKQLEELEKELDEVLELYRETAEYAFLKVAER",
    "median log2 fold change": -0.223
  },
  {
    "binder": "usp_38_diff_out_16_25_202 (protein) EVEALLRAHDELGEAAGYILRARESEDEEERKKLLREALESLEKALDIMKKELKIPEEVAKKIQELIDEAKEKLEAGAPFEEVIKLLEEAIDLAAEALAA",
    "median log2 fold change": 0.316
  },
  {
    "binder": "usp_38_diff_out_18_14_301 (protein) SEELAEALRSNLELLKEDVKEDTERVIRLLKKNKNDPERVKDIYERAKRNLAGVREYAEEVLEEAEEAGDEETAEAARELLETIEEERKKIEEEYKKVMA",
    "median log2 fold change": -0.149
  }
]

// input: 3 binders below; output: median log2 fold change for each
1. usp_38_diff_out_17_35_245 (protein) SLEEKERELLERTRRAAEEALRRARELLEAAKADPSQIDRYLAEARAVLDRFLAEAADILIEAAKLEIDAEVLQEIGDIIDRASDELQAILDELEALKAA
2. usp_38_diff_out_18_28_406 (protein) SSEEIEKKIEEAKEETDKLIDRYVEISTAAFLKYHEDPSSEELLKKVNELADALGKAAKAVNEMRENKDNEEKVEKYLEEYKKYSEEAEKLLEEIEKLIK
3. usp_38_diff_out_1_153_30 (protein) SELEELEKEIKKITEEAKKLKKEAEELIKSGKATREKVDKLADELGKLAVRLREIRSKAAESGDYYKKLKPLFKEAEKALNEAVDALEKAGRLVFEKEAE

0.015
0.0217
-0.0674

Data request, read-out median log2 fold change, for usp_38_diff_out_4_126_544 (protein) SREAEFAALRAEAEAALAEAERLLAEARAELDKDPEKALELLDRAWDALGRAAALLREMRRIAADDPALRAELAALRARLDALIDEFTAAATEIYEKIAE -0.215
